For each record, write down the corresponding pIC50.
Test system: Huh-7 HCV replicon cells (genotype 1a)
Assay: Replicon ELISA cell based assay, genotype 1a
Set-up: species or system HCV genotype 1a
Conditions: Hepatitis C virus, Huh-7 genotype 1a replicon, 72 hours
pIC50: −log10 of the molar value.

Some solved cases for reference:
1. COc1cc(C(=O)N2[C@@H](c3nccs3)[C@@H](c3cnccn3)C[C@@]2(Cc2ccsn2)C(=O)O)ccc1C(C)(C)C (single isomer, unassigned; enantiomer a) [Example 8] | > 5.00
2. COc1cc(C(=O)N2[C@@H](c3ncc(C)s3)[C@@H](c3cnccn3)C[C@@]2(Cc2nccs2)C(=O)O)ccc1C(C)(C)C (racemic) [Example 13] | > 5.00

Query molecule follows.
Query: I would be grateful if you could share the reported pIC50 for COc1cc(C(=O)N2[C@@H](c3ncc(C)s3)[C@@H](c3cnccn3)C[C@@]2(Cc2cscn2)C(=O)O)ccc1C(C)(C)C (racemic) [Example 15] .
Result: > 5.00

###

Target: HCV RNA Polymerase, recombinant full-length NS5B, genotype 1b (Hepatitis C virus genotype 1b)
Construct: Recombinant full-length NS5B
Sequence (Q9WMX2 2420-3010): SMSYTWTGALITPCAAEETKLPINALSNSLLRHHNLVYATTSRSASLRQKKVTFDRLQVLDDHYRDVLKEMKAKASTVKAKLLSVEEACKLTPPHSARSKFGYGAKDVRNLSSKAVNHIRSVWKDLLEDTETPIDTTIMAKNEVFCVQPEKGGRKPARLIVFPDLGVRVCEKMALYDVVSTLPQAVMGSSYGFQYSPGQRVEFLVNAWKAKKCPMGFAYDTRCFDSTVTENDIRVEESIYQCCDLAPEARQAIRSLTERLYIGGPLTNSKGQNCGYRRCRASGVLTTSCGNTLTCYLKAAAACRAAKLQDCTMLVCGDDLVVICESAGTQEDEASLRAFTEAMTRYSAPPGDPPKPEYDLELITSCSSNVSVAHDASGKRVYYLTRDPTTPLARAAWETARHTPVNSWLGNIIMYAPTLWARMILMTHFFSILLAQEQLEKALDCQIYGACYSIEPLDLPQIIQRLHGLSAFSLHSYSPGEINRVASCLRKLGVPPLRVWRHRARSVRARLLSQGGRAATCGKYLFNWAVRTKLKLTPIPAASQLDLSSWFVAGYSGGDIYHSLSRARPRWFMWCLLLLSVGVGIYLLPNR
Experiment: In vitro HCV RNA-dependent RNA polymerase inhibition assay, genotype 1b full-length enzyme
Settings: genotype 1b full-length NS5B enzyme
pIC50: −log10 of the molar value.
Reported Endpoint: pIC50

1) COc1cc(C(=O)N2[C@@H](c3nccs3)[C@@H](c3cnccn3)C[C@@]2(Cc2ccccc2)C(=O)O)ccc1C(C)(C)C (racemic) [Compound G, reference compound] | 6.30 to 7.00
2) COc1cc(C(=O)N2[C@@H](c3nccs3)[C@@H](c3cnccn3)C[C@@]2(Cc2ccccn2)C(=O)O)ccc1C(C)(C)C (racemic) [Compound C, reference compound] | 6.30 to 7.00

Below: the item to evaluate.
Query: Fill in: pIC50 of COc1cc(C(=O)N2[C@@H](c3nccs3)[C@@H](c3cnccn3)C[C@@]2(Cc2cscn2)C(=O)O)ccc1C(C)(C)C (single isomer, unassigned; enantiomer a) [Example 2] is ___
Result: > 7.00
